# Tested on: HI-HeLa cells
# Experiment Summary: Cytotoxicity in mock-infected HI-HeLa cells (antirhinoviral assay, XTT)
# Assay type: cell-based
Parameter Measured: CC50

Lab note: CCOC(=O)/C(C)=C/[C@H](CCC(N)=O)NC(=O)[C@H](Cc1ccc(F)cc1)NC(=O)[C@@H](NC(=O)SC1CCCC1)C(C)(C)C gave CC50 of > 100 µM

CC50 in this record for CCOC(=O)/C=C/[C@H](CCC(N)=O)NC(=O)[C@H](Cc1ccccc1)NC(=O)[C@@H](NC(=O)SCC)C(C)(C)C : > 100 µM

// CCOC(=O)/C=C/[C@H](CCC(N)=O)NC(=O)[C@H](Cc1ccccc1)NS(=O)(=O)Cc1ccccc1 : CC50 value = > 100 µM

GET /value?item= CC(C)C[C@H](NC(=O)OCc1ccccc1)C(=O)N[C@@H](Cc1ccccc1)C(=O)N[C@H](/C=C/[N+](=O)[O-])CCC(N)=O &field=CC50 returns 100 µM

# CC50 (molecule: CC(C)C[C@H](NC(=O)OCc1ccccc1)C(=O)N[C@@H](Cc1ccccc1)C(=O)N[C@H](/C=C/C(=O)OCC1CCCC1)CCC(N)=O ) is > 100 µM

CC50 reading for CCOC(=O)/C=C/[C@H](CCC(N)=O)NC(=O)[C@H](Cc1cccc(F)c1)NC(=O)c1cc2c(OC)cccc2[nH]1 : 63.1 µM

In plain terms, CCOC(=O)/C=C/[C@H](CCC(N)=O)NC(=O)[C@H](Cc1ccccc1)NC(=O)[C@H](CC(C)C)NC(=O)OCc1ccccc1 has a documented CC50 of > 320 µM

Entry CCOC(=O)/C=C/[C@H](CCC(N)=O)NC(=O)[C@H](Cc1ccc(F)cc1)NC(=O)[C@@H](NC(=O)SC1CCCC1)C(C)C ; CC50 = > 100 µM

CC50 reading for CCOC(=O)/C=C/[C@H](CCC(N)=O)NC(=O)[C@H](CSC)NC(=O)[C@H](CC(C)C)NC(=O)OCc1ccccc1 : > 320 µM

Notebook: CCOC(=O)C=CC(CCC(N)=O)NC(=O)C(Cc1ccccc1)NC(=O)C(NC(=O)OCc1ccccc1)c1ccccc1 (stereo not shown) , CC50 read as > 320 µM

In plain terms, CCN(CC)c1ccc(C(=O)/C=C/[C@H](CCC(N)=O)NC(=O)[C@H](Cc2ccccc2)NC(=O)[C@H](CC(C)C)NC(=O)OCc2ccccc2)cc1 has a documented CC50 of 18 µM

Per the records, this molecule ( CCOC(=O)/C=C/[C@H](CCC(N)=O)NC(=O)[C@H](Cc1ccc(C(N)=O)cc1)NC(=O)[C@H](CC(C)C)NC(=O)OCc1ccccc1 ) has CC50 equal to 177 µM

# CC50 (molecule: CCOC(=O)/C=C/[C@H](CCC(N)=O)NC(=O)CNC(=O)[C@H](CC(C)C)NC(=O)OCc1ccccc1 ) is > 320 µM

====

# Experiment Summary: Cytotoxicity in mock-infected HI-HeLa cells (antirhinoviral assay, XTT)
# Type: cell-based
# Conditions: human; mock-infected HI-HeLa cells; two days; XTT; read-out: CC50
Parameter Measured: CC50 at 2 days

Item: CCOC(=O)/C=C/[C@H](CCC(=O)NC(c1ccccc1)(c1ccccc1)c1ccccc1)NC(=O)[C@H](Cc1ccccc1)NC(=O)[C@H](CC(C)C)NC(=O)OCc1ccccc1 | CC50 at 2 days: > 320 µM

Per the record, CCOC(=O)/C=C/[C@H](CCC(N)=O)NC(=O)[C@H](Cc1ccc(C#N)cc1)NC(=O)[C@H](CC(C)C)NC(=O)OCc1ccccc1 has CC50 at 2 days of > 320 µM

Noted for CON=C/C=C/[C@H](CCC(N)=O)NC(=O)[C@H](Cc1ccccc1)NC(=O)[C@H](CC(C)C)NC(=O)OCc1ccccc1 : its CC50 at 2 days reads > 320 µM

The compound identified as CCOC(=O)/C=C/[C@H](CCC(N)=O)NC(=O)[C@H](Cc1ccccc1)NC(=O)CNC(=O)OCc1ccccc1 registered its CC50 at 2 days at > 320 µM

The measured CC50 at 2 days associated with CC(C)C[C@H](NC(=O)OCc1ccccc1)C(=O)N[C@@H](Cc1ccccc1)C(=O)N[C@H](/C=C/C(=O)N(C)C)CCC(N)=O reads 251 µM

GET /value?item= CC(C)C[C@H](NC(=O)OCc1ccccc1)C(=O)N[C@@H](Cc1ccccc1)C(=O)N[C@H](/C=C/C(=O)N1CCc2cc(S(=O)(=O)N(C)C)ccc21)CCC(N)=O &field=CC50 at 2 days returns > 160 µM

Value of CC50 at 2 days reported for the compound CCOC(=O)/C=C/[C@H](CCC(N)=O)NC(=O)[C@H](Cc1ccccc1)NC(=O)[C@H](CC(C)C)NC(=O)CCO is > 320 µM

In plain terms, CON(C)C(=O)/C=C/[C@H](CCC(N)=O)NC(=O)[C@H](Cc1ccccc1)NC(=O)[C@H](CC(C)C)NC(=O)OCc1ccccc1 has a documented CC50 at 2 days of > 100 µM

Data point: CCOC(=O)/C=C/[C@H](CCC(N)=O)NC(=O)[C@H](Cc1ccccc1)NC(=O)[C@H](CC(=O)O)NC(=O)OCc1ccccc1 ; CC50 at 2 days = > 320 µM

Item: CCOC(=O)/C=C/[C@H](CCC(N)=O)NC(=O)[C@H](Cc1ccccc1)NC(=O)[C@H](CC(C)C)NC(=O)OCc1ccncc1 | CC50 at 2 days: > 320 µM

For CCOC(=O)/C=C/[C@H](CCC(N)=O)NC(=O)[C@H](Cc1ccccc1)NC(=O)[C@H](CC(C)C)NC(=O)CO the compound record lists CC50 at 2 days as > 320 µM

Please fill in: CC50 at 2 days reported for CCOC(=O)/C=C/[C@H](COC(N)=O)NC(=O)[C@H](Cc1ccccc1)NC(=O)[C@H](CC(C)C)NC(=O)OCc1ccccc1 = > 320 µM

====

# Subject Of Test: Recombinant Rhinovirus 3C protease (RVP) serotype-14 (Human rhinovirus 14, UniProt P03303)
# Construct: Recombinant Rhinovirus 3C proteases from serotypes 14, 16, 2 or 89; made in house
# Sequence (P03303 1538-1719): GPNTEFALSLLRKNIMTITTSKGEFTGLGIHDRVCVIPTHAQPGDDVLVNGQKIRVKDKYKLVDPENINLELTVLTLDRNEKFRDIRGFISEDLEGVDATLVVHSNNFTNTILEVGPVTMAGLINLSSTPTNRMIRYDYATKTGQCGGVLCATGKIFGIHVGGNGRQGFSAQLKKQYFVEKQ
# Experiment Summary: Inhibition of Rhinovirus Protease (fluorescence resonance energy transfer assay), serotype 14
# Format: biochemical, human rhinovirus (HRV)
I'd appreciate it if you could supply Ki values for the items below.
// note: answer is a bare numeric in µM

The reported Recombinant Rhinovirus 3C protease (RVP) serotype-14 (Human rhinovirus 14, UniProt P03303) Ki of CCOC(=O)/C(F)=C\[C@H](CCC(N)=O)NC(=O)[C@H](Cc1ccccc1)NC(=O)[C@H](CC(C)C)NC(=O)OCc1ccccc1 is 36

Assay Recombinant Rhinovirus 3C protease (RVP) serotype-14 (Human rhinovirus 14, UniProt P03303), sample CC(C)C[C@H](NC(=O)OCc1ccccc1)C(=O)N[C@@H](Cc1ccccc1)C(=O)N[C@H](/C=C/C(=O)OCC(C)(C)C)CCC(N)=O , Ki read: 3.6

# lookup: CC(C)C[C@H](NC(=O)OCc1ccccc1)C(=O)N[C@@H](Cc1ccccc1)C(=O)N[C@H](/C=C/c1nccn1C)CCC(N)=O on Recombinant Rhinovirus 3C protease (RVP) serotype-14 (Human rhinovirus 14, UniProt P03303), Ki = 2.9

The molecule CCOC(=O)/C=C/[C@H](CCC(N)=O)NC(=O)[C@H](Cc1ccccc1)NC(=O)[C@H](CC(C)C)NC(=O)CCO , when measured on Recombinant Rhinovirus 3C protease (RVP) serotype-14 (Human rhinovirus 14, UniProt P03303), yielded Ki of 11

Considering CCOC(=O)/C=C/[C@H](CCC(N)=O)NC(=O)[C@H](Cc1ccccc1)NC(=O)[C@H](CC(=O)O)NC(=O)OCc1ccccc1 , its Ki with Recombinant Rhinovirus 3C protease (RVP) serotype-14 (Human rhinovirus 14, UniProt P03303) was recorded as 0.5

====

# Subject Of Test: Recombinant Rhinovirus 3C protease (RVP) serotype-14 (Human rhinovirus 14)
# Construct: Recombinant Rhinovirus 3C proteases from serotypes 14, 16, 2 or 89; made in house
# Experiment Summary: Inhibition of Rhinovirus Protease (fluorescence resonance energy transfer assay), serotype 14
# Format: biochemical, human rhinovirus (HRV)
# Conditions: RVP serotype-14; progress curves in enzyme start experiments
# Method: Stock solution (50 mM, in DMSO) of various compounds were prepared; dilutions were in the same solvent. […] RVP activity is measured in the fluorescence resonance energy transfer assay. […] In the uncleaved peptide, the EDANS fluorescence was quenched by the proximal DABCYL moeity. When the peptide was cleaved, the quenching was relieved, and activity was measured as an increase in fluorescence signal. […]
For each record, write down the corresponding kobs/I.

The molecule listed as CCOC(=O)/C=C/[C@H](CCC(N)=O)NC(=O)[C@H](Cc1ccc(O)cc1)NC(=O)[C@H](CC(C)C)NC(=O)OCc1ccccc1 [Compound 53] shows kobs/I equal to 11,320 M-1 sec-1

Lookup result for CCOC(=O)/C=C/[C@H](CCC(N)=O)NC(=O)[C@H](Cc1ccccc1)NC(=O)[C@H](CC(C)C)NC(=O)OC [Compound 110] ; measured kobs/I: 9,072 M-1 sec-1

// kobs/I lookup, molecule = CC(=O)N1CC/C(=C\[C@H](CCC(N)=O)NC(=O)[C@H](Cc2ccc(F)cc2)NC(=O)[C@@H](NC(=O)SC2CCCC2)C(C)(C)C)C1=O [Compound 189] , result: 386,000 M-1 sec-1

What the record says about CCOC(=O)/C=C/[C@H](CCC(N)=O)NC(=O)[C@H](Cc1cccc(F)c1)NC(=O)c1cc2c(OC)cccc2[nH]1 [Compound 28] : kobs/I is 4,000 M-1 sec-1

Kindly note the recorded kobs/I for CCOC(=O)/C(C)=C/[C@H](CCC(N)=O)NC(=O)[C@H](Cc1ccccc1)NC(=O)[C@@H](NC(=O)SCC)C(C)(C)C [Compound 168] , which is 37,800 M-1 sec-1

Notebook: CCOC(=O)/C=C/[C@H](CNC(N)=O)NC(=O)[C@H](Cc1ccccc1)NC(=O)[C@H](CC(C)C)NC(=O)OCc1ccccc1 [Compound 16] , kobs/I read as 3,500 M-1 sec-1

// sample CCOC(=O)/C(C)=C/[C@H](CCC(N)=O)NC(=O)[C@H](Cc1ccc(C)cc1)NC(=O)[C@@H](NC(=O)SC1CCCC1)C(C)(C)C [Compound 175] , its kobs/I was 124,000 M-1 sec-1

Looking up CCOC(=O)/C=C/[C@H](CCC(N)=O)NC(=O)[C@H](Cc1ccccc1)NC(=O)[C@H](CCc1ccccc1)NC(=O)SCc1ccccc1 [Compound 162] , I see its kobs/I listed as 800,000 M-1 sec-1

The recorded kobs/I for entry CCOC(=O)/C=C/[C@H](CCC(N)=O)NC(=O)[C@H](Cc1ccccc1)NS(=O)(=O)CC [Compound 33] equals 33 M⁻¹ s⁻¹

# kobs/I (molecule: CC(=O)N1CC/C(=C\[C@H](CCC(N)=O)NC(=O)[C@H](Cc2ccccc2)NC(=O)[C@H](CC(C)C)NC(=O)OCc2ccccc2)C1=O [Compound 164] ) is 155,500 M-1 sec-1

Summary for this molecule, CC(C)C[C@H](NC(=O)OCc1ccccc1)C(=O)N[C@@H](Cc1ccccc1)C(=O)N[C@H](/C=C/C(=O)N1CCCO1)CCC(N)=O [Compound 79] : kobs/I is 13,900 M-1 sec-1

// kobs/I lookup, molecule = CCOC(=O)/C=C/[C@H](CCC(N)=O)NC(=O)[C@H](Cc1ccc(F)cc1)NC(=O)[C@@H](NC(=O)SC1CCCC1)C(C)(C)Sc1ccc([N+](=O)[O-])cc1 [Compound 185] , result: 600,000 M-1 sec-1
